Target: T1, hBfl-1ΔTm(1–149) (human)
T1 chain: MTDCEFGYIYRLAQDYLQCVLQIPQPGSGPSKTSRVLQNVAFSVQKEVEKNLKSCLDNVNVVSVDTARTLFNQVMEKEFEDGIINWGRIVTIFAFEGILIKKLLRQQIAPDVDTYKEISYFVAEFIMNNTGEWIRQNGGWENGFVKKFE
Experiment: ITC
Non-standard residues stand in square brackets, D forms with d. No end group written: not given here. *: point of attachment. Dap = NC[C@H](N)C(=O)O; ClAc = O=C(CCl)*
metric: Kd (nM)
Write the number in nM without appending the unit.

Give a short answer stating reported Kd for [Dap](ClAc)IAQELRRIGDEFNAYYARR [130E7] .
2.6

Give a short answer stating reported Kd for PRRPRRPRRPRRPRR[Dap](ClAc)IAQELRRIGDEFNAYYARR [130G4] .
23
